Molecular target: UniProt P22303
Sequence (P22303 32-617 isoform P22303-2 limits assumed): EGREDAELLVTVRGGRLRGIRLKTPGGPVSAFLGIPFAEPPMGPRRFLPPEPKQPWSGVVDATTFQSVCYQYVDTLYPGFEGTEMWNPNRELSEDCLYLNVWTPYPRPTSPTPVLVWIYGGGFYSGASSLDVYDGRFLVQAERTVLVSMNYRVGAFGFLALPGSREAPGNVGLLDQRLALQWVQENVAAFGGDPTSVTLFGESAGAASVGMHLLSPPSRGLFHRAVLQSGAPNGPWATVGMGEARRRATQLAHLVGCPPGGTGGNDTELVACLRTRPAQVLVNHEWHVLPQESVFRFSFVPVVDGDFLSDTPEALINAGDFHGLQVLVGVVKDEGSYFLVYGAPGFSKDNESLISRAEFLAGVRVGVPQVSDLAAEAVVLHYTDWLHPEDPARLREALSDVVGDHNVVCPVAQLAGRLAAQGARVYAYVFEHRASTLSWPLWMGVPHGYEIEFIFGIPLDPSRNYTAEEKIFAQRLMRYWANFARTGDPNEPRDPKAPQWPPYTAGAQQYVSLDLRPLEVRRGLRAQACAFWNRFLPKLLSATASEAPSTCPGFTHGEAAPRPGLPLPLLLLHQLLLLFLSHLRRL
pIC50: −log10 of the molar value.
Recorded pIC50 split into classes lower band = under 5, central band = from 5 up to 6, upper band = 6 and over

Some solved cases for reference:
compound	qualitative.label
C#CCNCCc1cccc(OC(=O)N(C)CC)c1 [Compound 13]	lower band
C#CCNC(C)Cc1cccc(OC(=O)N(C)C)c1 (stereo not shown) [Compound 16]	upper band
C#CCN(C)C(C)Cc1cccc(OC(=O)N(C)CCC)c1 (racemic) [Compound 35]	lower band
CN(C)CCc1cccc(OC(=O)N(C)C)c1 [Compound 10]	upper band
C#CCN(C)C(C)Cc1cccc(OC(=O)N(C)CCCCCC)c1 (racemic) [Compound 27]	central band
C#CCN(C)CCc1cccc(OC(=O)N(C)CC)c1 [Compound 15]	lower band
C#CCNC(C)Cc1cccc(OC(=O)N(C)C2CCCCC2)c1 (stereo not shown) [Compound 36]	central band

We next turn to a different compound, shown below.
Query: Kindly state the category for this compound: C#CCN(C)C(C)Cc1cccc(OC(=O)N(C)CC)c1 (stereo not shown) [Compound 21]
Response: lower band
